Give measured Plasma stability (h) mouse for each item. Keep answers brief.
Experiment: BTK FAC plasma stability assay, mouse plasma
Assay type: in vitro ADME
Conditions: incubation to 24 h

Look over these answered cases.
CCCCCCCCCCCN(C(=O)CCCCCCCCCC(=O)O)C(CCC(=O)NCCOCCOCCOCCOCCOCCOCCOCCOCCOCCOCCOCCOCCC(=O)N[C@@H](C)C(=O)OC(C)(C)c1ccc(C(=O)Nc2cc(F)cc(-c3ncnc4[nH]c(-c5ccc(CCN6CCC7(CC6)CCN(C(=O)c6ccc(OC)c(N8CCC(=O)NC8=O)c6)CC7)cc5)cc34)c2C)c(F)c1)C(=O)O (stereo partly drawn) = >48 h
CCCCCCCCCCCN(C(=O)CCCCCCCCCC(=O)O)C(CCC(=O)NCCOCCOCCOCCOCCC(=O)NCC(=O)O[C@H]1CN(C(=O)Nc2cc(F)cc(-c3ncnc4[nH]c(-c5ccc(CCN6CCC7(CC6)CCN(C(=O)c6ccc(OC)c(N8CCC(=O)NC8=O)c6)CC7)cc5)cc34)c2C)C[C@@H]1CC(C)C)C(=O)O (stereo partly drawn) = <1 h

Please look at the following molecule next.
q: For the molecule CCCCCCCCCCCN(C(=O)CCCCCCCCCC(=O)O)C(CCC(=O)NCCOCCOCCOCCOCCOCCOCCOCCOCCC(=O)NCC(=O)OC(C)(C)c1ccc(C(=O)Nc2cc(F)cc(-c3ncnc4[nH]c(-c5ccc(CCN6CCC7(CC6)CCN(C(=O)c6ccc(OC)c(N8CCC(=O)NC8=O)c6)CC7)cc5)cc34)c2C)c(F)c1)C(=O)O (stereo not drawn) , what Plasma stability (h) mouse is on record?
a: >48 h
